Target: T1, His-tagged PD-L1 ECD protein (ACROBiosystems) (human, UniProt Q9NZQ7 19-238)
T1 construct: Bought protein; also called PD-L1-His; PD-L1/His; not shown: His tag
T1 sequence (Q9NZQ7 19-238): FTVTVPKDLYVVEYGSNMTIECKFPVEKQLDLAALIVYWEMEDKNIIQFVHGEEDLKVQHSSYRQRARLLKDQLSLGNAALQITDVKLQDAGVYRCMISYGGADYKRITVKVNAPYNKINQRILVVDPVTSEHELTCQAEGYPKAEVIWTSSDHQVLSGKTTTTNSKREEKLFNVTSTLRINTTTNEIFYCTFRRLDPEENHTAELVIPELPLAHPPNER
Assay: SPR, supernatant IgG captured, PD-L1-His analyte
Metric name: Kd (nM)
The reply should be a number in nM, with the unit left off.

Worked cases, Kd given:
{"columns": ["Binder", "Kd [nM]"],
 "data": [
  ["53C1_VH3.M3-VL1.M1 (antibody, human IgG1, kappa, N297A, V domains shown, Humanized, VH N57Q in the entry; hIgG1 effector-less Fc, kappa; see recheck on K24R in the .M1 light chain) VH: EVQLVQSGAEVKKPGASVKLSCKASGYIFTGYGITWVRQAPGQGLEWIGEIFPRRVQTYYSEKFKGRATLTADTSTSTAYMELRSLRSDDTAVYFCARDYDPYFALDYWGQGTTVTVSS VL: DIQMTQSPSSLSASVGDRVTITCRASQDVSTAVDWYQQKPGKAPKLLIYSASYRYTGVPDRFSGSGSGTDFTFTISSLQPEDIATYYCQQHYSIPFTFGQGTKLEIKR", 0.21],
  ["53C1_VH3-VL1.M1 (antibody, human IgG1, kappa, N297A, V domains shown, Humanized, hIgG1 effector-less Fc, kappa; see recheck on K24R in the .M1 light chain) VH: EVQLVQSGAEVKKPGASVKLSCKASGYIFTGYGITWVRQAPGQGLEWIGEIFPRRVNTYYSEKFKGRATLTADTSTSTAYMELRSLRSDDTAVYFCARDYDPYFALDYWGQGTTVTVSS VL: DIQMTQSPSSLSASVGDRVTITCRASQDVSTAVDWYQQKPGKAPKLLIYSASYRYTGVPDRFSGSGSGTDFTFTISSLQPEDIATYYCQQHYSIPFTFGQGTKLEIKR", 0.49]
]}

// sample 53C1_VH2-VL1.M1 (antibody, human IgG1, kappa, N297A, V domains shown, Humanized, hIgG1 effector-less Fc, kappa; see recheck on K24R in the .M1 light chain) VH: EVQLVQSGAEVKKPGASVKVSCKASGYIFTGYGITWVRQAPGQGLEWIGEIFPRRVNTYYSEKFKGRATLTTDTSTSTAYMELRSLRSDDTAVYFCARDYDPYFALDYWGQGTTVTVSS VL: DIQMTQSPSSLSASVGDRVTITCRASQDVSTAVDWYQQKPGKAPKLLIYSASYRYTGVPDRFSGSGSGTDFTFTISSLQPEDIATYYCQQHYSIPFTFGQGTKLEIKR , its Kd was 1

// sample 53C1_chimeric (antibody, human IgG1, kappa, N297A, V domains shown, Human IgG1 with effector-less Fc mutations, human kappa; also called chimeric 53C1F3D4) VH: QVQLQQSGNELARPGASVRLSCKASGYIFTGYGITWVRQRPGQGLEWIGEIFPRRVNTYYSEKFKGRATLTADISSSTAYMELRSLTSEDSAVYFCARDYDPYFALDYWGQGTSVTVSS VL: DIVMTQSHKFMSTSVGDRVSITCKASQDVSTAVDWYQQKPGQSPKLLIYSASYRYTGVPDRFTGSGSGTAFTFTISGEQAEDLAVYYCQQHYSIPFTFGGGTKLEIKR , its Kd was 0.72

Data origin, for the record: patent US20220135687A1
